testDetails: Inhalation exposure: Compound A concentration in lung, plasma and BALF (Example 2)
Assay type: in vivo, BALB/c mice
settings: male, BALB/c, mouse, BALF, inhaled; mice, 30 min inhalation, nominal aerosol 0.02 mg/L, 1 h; read-out: Compound A concentration BALF
readoutKind: concentration at 1 h

input: GET /values?readout=concentration at 1 h&item= Nc1nc(N)c2nc(-c3cccc(O)c3)c(-c3cccc(O)c3)nc2n1 [Compound A]
output: 831 ng/mL

---

testDetails: Inhalation exposure: Compound A concentration in lung, plasma and BALF (Example 2)
Assay type: in vivo, BALB/c mice
settings: male, BALB/c, mouse, lung, inhaled; mice, 30 min inhalation, nominal aerosol 0.2 mg/L, 0.5 h; read-out: Compound A concentration Lung
readoutKind: concentration at 0.5 h (ng/g)
Dear colleague, please return just the value in ng/g, with no unit written.

input: State the recorded concentration at 0.5 h for this entry: Nc1nc(N)c2nc(-c3cccc(O)c3)c(-c3cccc(O)c3)nc2n1
output: 67200

---

testDetails: Inhalation exposure: Compound A concentration in lung, plasma and BALF (Example 2)
Format: in vivo, BALB/c mice
settings: male, BALB/c, mouse, lung, inhaled; mice, 30 min inhalation, nominal aerosol 0.07 mg/L, 8 h; read-out: Compound A concentration Lung
readoutKind: concentration at 8 h (ng/g)
Express it in ng/g; write the number only.

input: Bench note: what concentration at 8 h did Nc1nc(N)c2nc(-c3cccc(O)c3)c(-c3cccc(O)c3)nc2n1 [Compound A] show?
output: 15900

---

testDetails: Inhalation exposure: Compound A concentration in lung, plasma and BALF (Example 2)
Format: in vivo, BALB/c mice
settings: male, BALB/c, mouse, BALF, inhaled; mice, 30 min inhalation, nominal aerosol 0.02 mg/L, 2 h; read-out: Compound A concentration BALF
readoutKind: concentration at 2 h (ng/mL)
The reply should be a number in ng/mL, with the unit left off.

input: What concentration at 2 h value was documented for this molecule, Nc1nc(N)c2nc(-c3cccc(O)c3)c(-c3cccc(O)c3)nc2n1 ?
output: 813

---

testDetails: Inhalation exposure: Compound A concentration in lung, plasma and BALF (Example 2)
Assay type: in vivo, BALB/c mice
settings: male, BALB/c, inhaled or intranasal, 0.15 mg/kg; mouse BALF, aerosol conc. 0.02 mg/L; read-out: AUC(0-24)
readoutKind: AUC(0-t)

input: Need AUC(0-t), item Nc1nc(N)c2nc(-c3cccc(O)c3)c(-c3cccc(O)c3)nc2n1
output: 8850 ng·h/mL

---

testDetails: Inhalation exposure: Compound A concentration in lung, plasma and BALF (Example 2)
Assay type: in vivo, BALB/c mice
settings: male, BALB/c, mouse, BALF, inhaled; mice, 30 min inhalation, nominal aerosol 0.2 mg/L, 1 h; read-out: Compound A concentration BALF
readoutKind: concentration at 1 h (ng/mL)
Reply numerically in ng/mL, unit not repeated.

input: // returns reported concentration at 1 h for input Nc1nc(N)c2nc(-c3cccc(O)c3)c(-c3cccc(O)c3)nc2n1
output: 2570
